Reference source for all entries: patent US9464069B2

// human sigma 1 receptor (Homo sapiens, UniProt Q99720) Ki records
Where a name gives a salt, the structure may show the parent alone.
result type: Ki (µM)

The cases that follow already have their Ki on record.
Cn1nc(OC[C@@H]2CC[C@H]2CN2CCCC2)cc1C(F)(F)F [Example 32, hydrochloride]    0.0172
CC1CCN(C[C@H]2CC[C@H]2COc2ccc(Cl)c(Cl)c2)CC1 [Example 20, hydrochloride]    0.0048
Clc1ccc(OC[C@@H]2CC[C@@H]2CN2CCCC2)cc1Cl [Example 18, hydrochloride]    0.0023

1: Clc1ccc(-n2ccc(OC[C@@H]3CC[C@@H]3CN3CCCC3)n2)cc1Cl [Example 25, hydrochloride]
2: Cc1cc(OC[C@H]2CC[C@@H]2CN2CCOCC2)nn1-c1ccc(Cl)c(Cl)c1
For 1 and 2 , which recorded Ki is lower? I would appreciate it if you answered with the label of your choice. 1
(1: 0.0204 µM, 2: 0.465 µM)

a: CCN(CC)C[C@H]1CC[C@@H]1COc1ccccc1 [Example 39, hydrochloride]
b: Cn1nc(OC[C@H]2CC[C@@H]2CN2CCCC2)cc1C(F)(F)F [Example 38, hydrochloride]
For the pair a and b , which entry has the numerically smaller recorded Ki? Indicate which entry you chose by stating its label. a
